Experiment: Pharmacokinetic test in rats
Type: in vivo, male SD rats
Details: male, SD, rat, plasma, oral gavage administration, 10 mg/kg
assay.metric: Cmax (ng/mL)
Give a bare numeral; the unit ng/mL is implied.

C=C(C)C(=O)Nc1ccc(-c2c(-c3ccc(Oc4nccc(C)n4)c(F)c3)c3c(N)ncnc3n2C)cc1 [Control compound I, reference compound] | 141

Turning now to a further record.
Task: For the molecule shown here, C=C(C)C(=O)Nc1ccc(-c2c(-c3ccc(N=S4(=O)CCCC4)c(F)c3)c3c(N)ncnc3n2C)cc1 [Compound 33] , give the reported Cmax.
Result: 306

====

Assay: Human liver microsomes stability test
Format: in vitro ADME
Conditions: human liver microsomes 0.5 mg/mL, compound 1.0 µM
Method: Human liver microsomes stability test was performed by co-incubating compounds with human liver microsomes in vitro. Firstly, a 10 mM stock solution of the test compound in DMSO solvent was prepared, and then the compound was diluted with methanol to a 0.15 mM working solution. […]
assay.metric: half-life at 1 µM (h)
Reply with just the number (in h).

Task: // lookup half-life at 1 µM for C=C(C)C(=O)Nc1ccc(-c2c(-c3ccc(N=S4(=O)CCCCC4)cc3)c3c(N)ncnc3n2C)cc1 [Compound 4]
Result: 1.43

====

Test: Rat liver cells metabolic stability
Assay type: in vitro ADME
Conditions: rat liver cells (cryopreserved hepatocytes in suspension); rat liver cells 0.5 × 10^6 cells/mL; read-out: in vitro CLint (µL/min/10^6 cells)
assay.metric: hepatocyte CLint at 1 µM (µL/min/1e6 cells)
Numbers only here, please. The scale is µL/min/1e6 cells.

Task: // hepatocyte CLint at 1 µM lookup, key: C=C(C)C(=O)Nc1ccc(-c2c(-c3ccc(N=S4(=O)CCCC4)c(F)c3)c3c(N)ncnc3n2C)c(F)c1 [Compound 23]
Result: 48.4

====

Target: hERG (Homo sapiens, UniProt Q12809)
Sequence (Q12809 whole entry): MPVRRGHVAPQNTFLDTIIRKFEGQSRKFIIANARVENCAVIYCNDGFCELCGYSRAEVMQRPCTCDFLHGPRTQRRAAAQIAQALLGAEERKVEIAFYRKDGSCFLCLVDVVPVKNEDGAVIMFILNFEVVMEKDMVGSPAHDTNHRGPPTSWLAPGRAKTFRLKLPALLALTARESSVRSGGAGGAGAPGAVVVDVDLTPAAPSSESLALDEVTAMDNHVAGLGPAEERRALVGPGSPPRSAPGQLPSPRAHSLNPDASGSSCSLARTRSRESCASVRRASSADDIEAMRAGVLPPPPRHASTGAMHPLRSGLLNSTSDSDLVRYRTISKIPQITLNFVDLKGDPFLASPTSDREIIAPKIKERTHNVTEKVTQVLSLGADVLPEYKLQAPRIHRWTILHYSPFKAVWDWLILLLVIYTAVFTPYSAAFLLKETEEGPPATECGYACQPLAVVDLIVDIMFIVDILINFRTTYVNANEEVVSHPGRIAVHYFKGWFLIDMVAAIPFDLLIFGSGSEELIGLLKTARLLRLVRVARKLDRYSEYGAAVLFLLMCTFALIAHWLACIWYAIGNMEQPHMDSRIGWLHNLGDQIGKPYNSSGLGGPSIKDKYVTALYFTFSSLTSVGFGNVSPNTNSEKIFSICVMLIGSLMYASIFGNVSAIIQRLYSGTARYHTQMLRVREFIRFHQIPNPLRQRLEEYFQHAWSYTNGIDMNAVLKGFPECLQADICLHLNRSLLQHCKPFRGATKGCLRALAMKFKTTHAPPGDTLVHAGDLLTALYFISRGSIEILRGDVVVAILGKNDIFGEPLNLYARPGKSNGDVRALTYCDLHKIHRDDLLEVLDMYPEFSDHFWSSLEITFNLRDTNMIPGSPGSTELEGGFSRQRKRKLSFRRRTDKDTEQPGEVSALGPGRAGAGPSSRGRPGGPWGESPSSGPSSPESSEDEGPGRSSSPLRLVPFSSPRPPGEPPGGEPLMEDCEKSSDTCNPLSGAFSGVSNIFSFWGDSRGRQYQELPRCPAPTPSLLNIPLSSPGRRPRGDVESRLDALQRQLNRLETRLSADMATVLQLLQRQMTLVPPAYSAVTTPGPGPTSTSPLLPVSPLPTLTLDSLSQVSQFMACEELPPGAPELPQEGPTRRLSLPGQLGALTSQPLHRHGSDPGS
Assay: Manual patch clamp, hERG channel current in HEK-293 cells
Details: human, hek-293 cells
assay.metric: inhibition at 0.3 µM (%)
Give the number; % is assumed, so skip it.

Task: I would be grateful if you could share the reported inhibition at 0.3 µM for C=C(C)C(=O)Nc1ccc(-c2c(-c3ccc(N=S4(=O)CCCC4)cc3)c3c(N)ncnc3n2C)c(F)c1 [Compound 24] .
Result: -1.24

====

Target: UniProtKB Q12809
Assay: Manual patch clamp, hERG channel current in HEK-293 cells
assay.metric: IC50

Task: I have this compound here, C=C(C)C(=O)Nc1ccc(-c2c(-c3ccc(N=S4(=O)CCCC4)cc3)c3c(N)ncnc3n2C)c(F)c1 [Compound 24] , and I need its recorded IC50.
Result: > 10 µM

====

Target: CYP3A4 (Homo sapiens, UniProt P08684)
Sequence (P08684 whole entry): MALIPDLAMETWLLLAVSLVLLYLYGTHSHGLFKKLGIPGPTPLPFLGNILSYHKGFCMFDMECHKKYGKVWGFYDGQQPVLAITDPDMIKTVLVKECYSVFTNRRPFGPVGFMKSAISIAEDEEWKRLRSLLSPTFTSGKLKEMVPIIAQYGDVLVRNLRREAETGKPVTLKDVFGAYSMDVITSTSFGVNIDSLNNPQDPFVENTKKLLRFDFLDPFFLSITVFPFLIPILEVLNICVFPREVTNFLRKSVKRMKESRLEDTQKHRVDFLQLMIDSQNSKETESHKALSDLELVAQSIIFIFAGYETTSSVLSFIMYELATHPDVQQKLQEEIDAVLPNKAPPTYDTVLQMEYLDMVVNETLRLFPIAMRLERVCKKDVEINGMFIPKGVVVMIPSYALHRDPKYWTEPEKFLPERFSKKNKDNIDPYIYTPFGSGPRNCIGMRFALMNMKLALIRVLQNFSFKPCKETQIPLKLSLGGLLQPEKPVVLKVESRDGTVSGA
Assay: Cytochrome P450 inhibition in human liver microsomes
Reported pIC50 by item:
Quick note: pIC50 means taking -log10 of the concentration in moles per liter.

C=C(C)C(=O)Nc1ccc(-c2c(-c3ccc(N=S4(=O)CCCC4)cc3)c3c(N)ncnc3n2C)c(F)c1 [Compound 24] | 4.97
C=C(C)C(=O)Nc1ccc(-c2c(-c3ccc(N=S4(=O)CCC4)c(F)c3)c3c(N)ncnc3n2C)cc1 [Compound 56] | 4.88

Could you now consider this next compound?
Task: // fetch CYP3A4 (Homo sapiens, UniProt P08684) pIC50 for [2H]C([2H])([2H])n1c(-c2ccc(NC(=O)C(=C)C)cc2F)c(-c2ccc(N=S3(=O)CCCC3)cc2)c2c(N)ncnc21 [Compound 83]
Result: 4.94
